Below, each entry is listed alongside its reported EC50.
- studySystem: SST2 (Homo sapiens, UniProt P30874)
- Sequence (P30874 whole entry): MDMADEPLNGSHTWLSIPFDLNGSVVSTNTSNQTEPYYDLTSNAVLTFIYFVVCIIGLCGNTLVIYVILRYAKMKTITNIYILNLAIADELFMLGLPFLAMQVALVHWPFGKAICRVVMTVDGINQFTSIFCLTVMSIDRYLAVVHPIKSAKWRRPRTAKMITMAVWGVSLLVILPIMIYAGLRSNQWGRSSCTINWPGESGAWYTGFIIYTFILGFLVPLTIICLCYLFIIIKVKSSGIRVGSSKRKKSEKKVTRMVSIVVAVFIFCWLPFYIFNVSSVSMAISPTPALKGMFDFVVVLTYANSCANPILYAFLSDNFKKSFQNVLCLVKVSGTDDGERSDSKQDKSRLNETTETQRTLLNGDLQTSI
- protocol: Hit Hunter cAMP XS+ assay, SST2 activation via Gi (reduction of forskolin-stimulated cAMP)
- Assay type: cell-based
- measurementConditions: reduction of forskolin-stimulated cAMP; 4-parameter logistic fit; read-out: SST2 pEC50 (converted)
*1 amine or outer side, *2 acyl side, *3 side chain or, on linkers, in order; H or OH if unused. Where a SMILES comes first, the peptide text is derived from it. Side-chain parts run from the residue outwards. [ ]: non-standard residue; d: D form. The star is where a group is joined. Ala(piperidin-4-yl) = O=C([C@H](CC1CCN([*:3])CC1)N[*:1])[*:2]; dTrp(4-OMe) = COc1cccc2[nH]cc(C[C@@H](N)C(=O)O)c12; X2 = O=C([C@@H]1C[C@@H](Oc2ccncc2)CN1[*:1])[*:2]; dTrp(4-Me) = Cc1cccc2[nH]cc(C[C@@H](N)C(=O)O)c12; Ala(piperazin-1-yl) = N[C@@H](CN1CCNCC1)C(=O)O; Morpholine(3S-CO) = O=C(O)[C@@H]1COCCN1; Ethylenediamine = C(CN[*:2])N[*:1]; d(hPhe) = N[C@H](CCc1ccccc1)C(=O)O; Hyp = O=C(O)[C@@H]1C[C@@H](O)CN1; hPhe = N[C@@H](CCc1ccccc1)C(=O)O; 3Pal = N[C@@H](Cc1cccnc1)C(=O)O; Tic = O=C(O)[C@@H]1Cc2ccccc2CN1; Benzyl(4-Cl) = Clc1ccc(C*)cc1; Phg = N[C@H](C(=O)O)c1ccccc1; X9 = O=C(C1CNCCN1[*:1])[*:2]; CO = O=C([*:1])[*:2]; Bn = c1ccc(C*)cc1
Give the quantity in µM, number only.

molecule	unitSymbol	EC50
COc1cccc2[nH]cc(C[C@H]3NC(=O)[C@H](CCc4ccccc4)NC(=O)[C@@H]4COCCN4C(=O)[C@@H]4Cc5ccccc5CN4C(=O)[C@H](Cc4ccc(OCc5ccccc5)cc4)NC(=O)[C@H](CN4CCNCC4)NC3=O)c12 [Example 68] (cyclo([Tic][Morpholine(3S-CO)][hPhe][dTrp(4-OMe)][Ala(piperazin-1-yl)]Y(Bn)))	µM	0.251
O=C1N[C@@H](Cc2cccnc2)C(=O)N2C[C@H](Oc3ccncc3)C[C@H]2C(=O)N[C@H](CCc2ccccc2)C(=O)N[C@H](Cc2c[nH]c3ccccc23)C(=O)N[C@@H](CC2CCNCC2)C(=O)N[C@H]1Cc1ccc(OCc2ccccc2)cc1 [Example 20] (cyclo([3Pal][X2][d(hPhe)][dW][Ala(piperidin-4-yl)]Y(Bn)))	µM	3.16
COc1cccc2[nH]cc(C[C@H]3NC(=O)[C@H](c4ccccc4)NC(=O)[C@@H]4C[C@@H](OC(=O)NCCN)CN4C(=O)[C@H](Cc4ccccc4)NC(=O)[C@H](Cc4ccc(OCc5ccccc5)cc4)NC(=O)[C@H](CN4CCNCC4)NC3=O)c12 [Example 64] (cyclo(F[Hyp]([CO-Ethylenediamine])[Phg][dTrp(4-OMe)][Ala(piperazin-1-yl)]Y(Bn)))	µM	0.1
COc1ccc(C[C@@H]2NC(=O)[C@H](Cc3ccc(OCc4ccccc4)cc3)NC(=O)[C@H](CC3CCNCC3)NC(=O)[C@@H](Cc3c[nH]c4ccccc34)NC(=O)[C@H](c3ccccc3)NC(=O)[C@@H]3C[C@@H](OC(=O)NCCN)CN3C2=O)cc1 [Example 9] (cyclo([Hyp]([CO-Ethylenediamine])[Phg][dW][Ala(piperidin-4-yl)]Y(Bn)Y(Me)))	µM	0.0501
NCCNC(=O)O[C@@H]1C[C@H]2C(=O)N[C@H](CCc3ccccc3)C(=O)N[C@H](Cc3c[nH]c4ccccc34)C(=O)N[C@@H](CC3CCNCC3)C(=O)N[C@@H](Cc3ccc(OCc4ccccc4)cc3)C(=O)N[C@@H](Cc3ccccc3)C(=O)N2C1 [Example 38] (cyclo(F[Hyp]([CO-Ethylenediamine])[d(hPhe)][dW][Ala(piperidin-4-yl)]Y(Bn)))	µM	2.51

get_value(item= Cc1cccc2[nH]cc(C[C@H]3NC(=O)[C@H](CCc4ccccc4)NC(=O)[C@@H]4C[C@@H](OC(=O)NCCN)CN4C(=O)[C@H](Cc4cccnc4)NC(=O)[C@H](Cc4ccc(OCc5ccccc5)cc4)NC(=O)[C@H](CC4CCNCC4)NC3=O)c12 [Example 60] (cyclo([3Pal][Hyp]([CO-Ethylenediamine])[hPhe][dTrp(4-Me)][Ala(piperidin-4-yl)]Y(Bn))) , readout=EC50) returns 0.126

Just so you know, measured EC50 for NCCNC(=O)O[C@@H]1C[C@H]2C(=O)N[C@@H](CCc3ccccc3)C(=O)N[C@@H](Cc3c[nH]c4ccccc34)C(=O)N[C@@H](CN3CCNCC3)C(=O)N[C@@H](Cc3ccc(OCc4ccccc4)cc3)C(=O)N[C@@H](Cc3cccnc3)C(=O)N2C1 [Example 34] (cyclo([3Pal][Hyp]([CO-Ethylenediamine])[hPhe]W[Ala(piperazin-1-yl)]Y(Bn))) came out at 3.98

For NCCNC(=O)O[C@@H]1C[C@H]2C(=O)N[C@@H](CCc3ccccc3)C(=O)N[C@@H](Cc3c[nH]c4ccccc34)C(=O)N[C@@H](CC3CCNCC3)C(=O)N[C@@H](Cc3ccc(OCc4ccccc4)cc3)C(=O)N[C@@H](Cc3ccccc3)C(=O)N2C1 [Example 29] (cyclo(F[Hyp]([CO-Ethylenediamine])[hPhe]W[Ala(piperidin-4-yl)]Y(Bn))) the molecule record lists EC50 as 0.794

In plain terms, O=C1N[C@@H](CCc2ccccc2)C(=O)N[C@H](Cc2c[nH]c3ccccc23)C(=O)N[C@@H](CN2CCNCC2)C(=O)N[C@@H](Cc2ccc(OCc3ccccc3)cc2)C(=O)N2Cc3ccccc3C[C@H]2C(=O)N2CCNCC12 (some centres unmarked) [Example 65] (cyclo([Tic][X9][hPhe][dW][Ala(piperazin-1-yl)]Y(Bn))) has a documented EC50 of 1

The value of EC50 measured for the molecule NCCNC(=O)O[C@@H]1C[C@H]2C(=O)N[C@@H](CCc3ccccc3)C(=O)N[C@H](Cc3c[nH]c4ccccc34)C(=O)N[C@@H](CN3CCNCC3)C(=O)N[C@@H](Cc3ccc(OCc4ccccc4)cc3)C(=O)N[C@@H](Cc3cccnc3)C(=O)N2C1 [Example 14] (cyclo([3Pal][Hyp]([CO-Ethylenediamine])[hPhe][dW][Ala(piperazin-1-yl)]Y(Bn))) turned out to be 0.158

Per the records, this molecule ( NCCNC(=O)O[C@@H]1C[C@H]2C(=O)N[C@@H](c3ccccc3)C(=O)N[C@H](Cc3c[nH]c4ccccc34)C(=O)N[C@@H](CC3CCNCC3)C(=O)N[C@@H](Cc3ccc(OCc4ccc(Cl)cc4)cc3)C(=O)N[C@@H](Cc3ccccc3)C(=O)N2C1 [Example 6] (cyclo(F[Hyp]([CO-Ethylenediamine])[Phg][dW][Ala(piperidin-4-yl)]Y(Benzyl(4-Cl)))) ) has EC50 equal to 0.0501
